Cited source: patent US20120259413A1

biological target: hEP2 (Homo sapiens, UniProt P43116); test: FLIPR Ca2+ signal assay, hEP2 co-expressed with Gqs; conditions: EP2 receptor
Sequence (P43116 whole entry): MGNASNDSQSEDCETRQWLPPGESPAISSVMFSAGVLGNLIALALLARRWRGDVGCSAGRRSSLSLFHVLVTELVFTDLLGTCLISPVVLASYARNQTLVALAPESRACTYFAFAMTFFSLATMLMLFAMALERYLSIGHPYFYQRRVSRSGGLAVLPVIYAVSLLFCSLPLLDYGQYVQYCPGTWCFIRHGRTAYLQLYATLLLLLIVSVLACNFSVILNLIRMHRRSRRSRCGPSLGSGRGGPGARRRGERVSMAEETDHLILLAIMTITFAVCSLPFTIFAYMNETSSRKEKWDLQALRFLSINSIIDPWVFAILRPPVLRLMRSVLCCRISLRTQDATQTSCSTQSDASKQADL
observed-property: EC50 (nM)
Return type: number; implicit unit nM.

// query Fill blank: measured EC50 of the compound CCCCC[C@H](O)c1ccc(N2C(=O)CC[C@@H]2CCCc2ccc(C(=O)O)s2)cc1 [Compound II] is ____.
// result 6.7

---

Target: human recombinant EP4 receptor (Homo sapiens)
Sequence (P35408 whole entry): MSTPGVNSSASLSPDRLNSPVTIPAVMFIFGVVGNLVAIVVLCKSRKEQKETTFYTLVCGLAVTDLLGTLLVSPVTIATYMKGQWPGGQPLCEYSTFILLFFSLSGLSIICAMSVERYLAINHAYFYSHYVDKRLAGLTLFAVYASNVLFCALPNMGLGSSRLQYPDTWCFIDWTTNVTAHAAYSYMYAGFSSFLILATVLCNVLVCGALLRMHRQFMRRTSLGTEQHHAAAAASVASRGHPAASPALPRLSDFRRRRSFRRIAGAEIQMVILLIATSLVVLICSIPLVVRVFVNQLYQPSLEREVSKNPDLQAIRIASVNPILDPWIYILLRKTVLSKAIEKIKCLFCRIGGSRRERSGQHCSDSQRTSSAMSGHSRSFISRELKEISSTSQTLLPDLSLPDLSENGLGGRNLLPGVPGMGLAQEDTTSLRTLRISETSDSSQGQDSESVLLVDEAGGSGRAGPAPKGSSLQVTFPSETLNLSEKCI
Test: Radioligand binding assay ([3H]PGE2 competition), EP4 receptor
Experimental: General Protocol for Radioligand Binding Assays and cAMP assays: Radioligand binding studies on plasma membrane fractions prepared from cells** are performed as follows. […] The pellet is then re-suspended in TME buffer to provide a final protein concentration of 1 mg/ml, as determined by Bio-Rad assay. […] The binding of [^3H] PGE2 (specific activity 165 Ci/mmol) is determined in duplicate and in at least 3 separate experiments. […] PGE2 and non-specific binding is determined with 10^−5 M unlabelled PGE2. […]
observed-property: Ki

// query Look up Ki with human recombinant EP4 receptor (Homo sapiens) for this compound: `CC1(C)C(=O)[C@H](C/C=C\CCCC(=O)O)[C@@H](/C=C/[C@H](O)CCc2sc3ccccc3c2Cl)[C@@H]1O`
// result 6.7 nM
